- TARGET OR TEST SYSTEM: T1, human PCSK9 (proprotein convertase subtilisin kexin type 9) (human, UniProt Q8NBP7 31-692)
- T1 construct: Directly immobilized (SPR ProteOn), biotinylated (BLI), or in solution, depending on the assay; also called hPCSK9
- T1 sequence (Q8NBP7 31-692 limits assumed): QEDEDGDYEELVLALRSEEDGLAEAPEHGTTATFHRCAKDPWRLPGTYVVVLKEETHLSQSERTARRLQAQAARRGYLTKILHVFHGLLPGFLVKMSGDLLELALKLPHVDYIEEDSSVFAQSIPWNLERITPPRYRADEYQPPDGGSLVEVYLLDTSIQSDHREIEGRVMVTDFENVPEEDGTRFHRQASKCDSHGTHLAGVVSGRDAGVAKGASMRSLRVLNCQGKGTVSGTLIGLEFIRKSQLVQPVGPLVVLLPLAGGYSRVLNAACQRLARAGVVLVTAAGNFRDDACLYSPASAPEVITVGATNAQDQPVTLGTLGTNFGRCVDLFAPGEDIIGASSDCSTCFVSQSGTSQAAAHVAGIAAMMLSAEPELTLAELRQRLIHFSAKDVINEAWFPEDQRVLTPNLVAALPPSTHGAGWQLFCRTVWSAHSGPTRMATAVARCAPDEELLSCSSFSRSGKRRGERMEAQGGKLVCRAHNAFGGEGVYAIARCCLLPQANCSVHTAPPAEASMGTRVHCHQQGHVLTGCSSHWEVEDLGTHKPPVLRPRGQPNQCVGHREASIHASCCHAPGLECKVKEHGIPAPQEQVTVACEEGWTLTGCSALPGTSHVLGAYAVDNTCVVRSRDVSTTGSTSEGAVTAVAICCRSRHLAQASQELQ
- PROTOCOL: BLI, biotinylated hPCSK9 on sensor tips
Measured koff by item
Reply with just the number (in s⁻¹).

Would you please look over these solved cases?
2382D05 (designed binder, Anti-PCSK9 Adnectin, His6-tagged; Same entry as 2451B06) MGVSDVPRDLEVVAATPTSLLISWDAPADGGYGYYRITYGETGGNSPVQEFTVPVSKGTATISGLKPGVDYTITVYAVEFDFPGAGYYHRPISINYRTEIDKPSQHHHHHH	0.000157
2451C06 (designed binder, Anti-PCSK9 Adnectin, His6-tagged) MGVSDVPRDLEVVAATPTSLLISWDAPAGAASYGYYRITYGETGGNSPVQEFTVPVSKGTATISGLKPGVDYTITVYAVEFPFPGAGYYHRPISINYRTEIDKPSQHHHHHH	0.000435
2381B02 (designed binder, Anti-PCSK9 Adnectin, His6-tagged) MGVSDVPRDLEVVAATPTSLLISWEPFSRLPGGGEYYRITYGETGGNSPLQQFTVPGSKGTATISGLKPGVDYTITVYAVEYPYDYSGYYHRPISINYRTEIDKPSQHHHHHH	0.000831

Identify koff associated with the binder 2971A09 (designed binder, Anti-PCSK9 Adnectin, His6-tagged) MGVSDVPRDLEVVAATPTSLLISWDAPADDYGYYRITYGETGGNSPVQEFTVPIGKGTATISGLKPGVDYTITVYAVEFPWPHAGYYHRPISINYRTEIDKPSQHHHHHH
0.00105

Quick one: give measured koff for 2382E05 (designed binder, Anti-PCSK9 Adnectin, His6-tagged) MGVSDVPRDLEVVAATPTSLLISWDAPAEGGYGYYRITYGETGGNSPVQEFTVPVSKGTATISGLKPGVDYTITVYAVEFDFPGAGYYHRPISINYRTEIDKPSQHHHHHH
0.00025

Annotate the binder 2382D09 (designed binder, Anti-PCSK9 Adnectin, His6-tagged) MGVSDVPRDLEVVAATPTSLLISWDAPAEGYGYYRITYGETGGNSPVQEFTVPVSKGTATISGLKPGVDYTITVYAVEFDFPGAGYYHRPISINYRTEIDKPSQHHHHHH with its measured koff.
0.000164

Look up and state reported koff for 2971E02 (designed binder, Anti-PCSK9 Adnectin, His6-tagged) MGVSDVPRDLEVVAATPTSLLISWDAPSDDYGYYRITYGETGGNSPVQEFTVPIGKGTATISGLKPGVDYTITVYAVEFPWPHAGYYHRPISINYRTEIDKPSQHHHHHH
0.000555

Annotate the binder ATI001175 (designed binder) MGVSDVPRDLEVVAATPTSLLISWDPPSHAYGYYRITYGETGGNSPVQEFTVPIGKGTATISGLKPGVDYTITVYAVEYPWKGSGYYHRPISINYRTEIDKPSQHHHHHH with its measured koff.
0.000352
